Overview of reported log10(IC50) across a group of compounds:
SUBJECT OF TEST: full length recombinant Pim-1 (Homo sapiens (Human))
Sequence (P11309 whole entry): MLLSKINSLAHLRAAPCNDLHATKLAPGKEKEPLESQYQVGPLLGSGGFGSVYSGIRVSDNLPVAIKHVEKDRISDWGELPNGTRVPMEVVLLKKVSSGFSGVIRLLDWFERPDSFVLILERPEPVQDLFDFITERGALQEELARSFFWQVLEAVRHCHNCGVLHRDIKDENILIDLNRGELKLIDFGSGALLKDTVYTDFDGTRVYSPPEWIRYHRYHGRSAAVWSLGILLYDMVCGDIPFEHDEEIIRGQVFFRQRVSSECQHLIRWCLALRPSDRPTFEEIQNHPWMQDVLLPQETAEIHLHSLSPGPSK
METHOD SUMMARY: Pim enzyme assay (HTRF, phosphorylation of biotinylated-BAD (S112) peptide), Pim-1
Type: biochemical
CONDITION SUMMARY: Pim-1 enzyme assay; read-out: Pim_1_IC50
ASSAY METRIC: log10(IC50) (log10 of the value in nM)

{"COMPOUND": "C[C@H]1COCCN1c1nnc(-c2ccc3[nH]cc(-c4cncc(C5CC5)n4)c3c2)o1", "VALUE MEASURED": 1.14}
{"COMPOUND": "COc1cc(-c2c[nH]c3ccc(-c4nnc(N)s4)cc23)nc(OC(C)C)n1", "VALUE MEASURED": 1.19}
{"COMPOUND": "Nc1nnc(-c2ccc3[nH]cc(-c4ccc5cn[nH]c5c4)c3c2)s1", "VALUE MEASURED": 1.56}
{"COMPOUND": "CNc1nnc(-c2ccc3[nH]cc(-c4ccncc4)c3c2)s1", "VALUE MEASURED": 2.74}
{"COMPOUND": "COC[C@@H]1CCCN1c1ccnc(-c2c[nH]c3ccc(-c4nnc(N)o4)cc23)n1", "VALUE MEASURED": 1.51}
{"COMPOUND": "Nc1nnc(-c2ccc3[nH]cc(-c4cccc(-c5ccccc5)n4)c3c2)s1", "VALUE MEASURED": 1.60}
{"COMPOUND": "Nc1nnc(-c2ccc3[nH]cc(-c4nccc(N5CCOCC5)n4)c3c2)s1", "VALUE MEASURED": 1.29}
{"COMPOUND": "CC(Nc1nnc(-c2ccc3[nH]cc(-c4cnccn4)c3c2)o1)c1ccccc1 (stereo not shown)", "VALUE MEASURED": 2.23}
{"COMPOUND": "CN1CCCC(Nc2ccnc(-c3c[nH]c4ccc(-c5nnc(N)o5)cc34)n2)C1 (stereo not shown)", "VALUE MEASURED": 1.27}
{"COMPOUND": "CCOc1cncc(-c2c[nH]c3ccc(-c4nnc(N)s4)cc23)n1", "VALUE MEASURED": 1.29}
{"COMPOUND": "Nc1nnc(-c2ccc3[nH]cc(-c4csc(-n5ccccc5=O)n4)c3c2)s1", "VALUE MEASURED": 1.66}
{"COMPOUND": "CS(=O)(=O)c1nnc(-c2ccc3[nH]cc(-c4cccc(N5CCOCC5)n4)c3c2)s1", "VALUE MEASURED": 2.32}
{"COMPOUND": "Nc1nnc(-c2ccc3[nH]cc(-c4cncc(N5CCOCC5)n4)c3c2)s1", "VALUE MEASURED": 0.75}
{"COMPOUND": "Cc1ccnc(-c2c[nH]c3ccc(-c4nnc(NC(C)(C)C)o4)cc23)n1", "VALUE MEASURED": 0.94}
{"COMPOUND": "CC(C)Oc1cccc(-c2c[nH]c3ccc(-c4nnc(N)s4)cc23)n1", "VALUE MEASURED": 0.89}
{"COMPOUND": "CC(C)Oc1cccc(-c2c[nH]c3ccc(-c4nsc(N)n4)cc23)n1", "VALUE MEASURED": 2.53}
{"COMPOUND": "c1cc2[nH]cc(-c3cncc(C4CC4)n3)c2cc1-c1nnc(N2CCNCC2)o1", "VALUE MEASURED": 0.62}
{"COMPOUND": "CC(C)Oc1cc(F)cc(-c2c[nH]c3ccc(-c4nnc(N)o4)cc23)c1", "VALUE MEASURED": 2.19}
{"COMPOUND": "CCCOc1cccc(-c2c[nH]c3ccc(-c4nnc(N)s4)cc23)n1", "VALUE MEASURED": 1.18}
{"COMPOUND": "CCOc1nc(-c2c[nH]c3ccc(-c4nnc(NC(C)C)o4)cc23)ncc1F", "VALUE MEASURED": 1.48}
{"COMPOUND": "c1ccc(Nc2nnc(-c3ccc4[nH]cc(-c5cncc(C6CC6)n5)c4c3)o2)cc1", "VALUE MEASURED": 2.02}
{"COMPOUND": "CNc1nc(-c2ccc3[nH]cc(-c4cncc(OC(C)C)n4)c3c2)no1", "VALUE MEASURED": 1.84}
